Target: T1, human CD137 expressed on cells (human, UniProt Q07011 24-255)
T1 construct: whole, on cells; also called CHO-huCD137; CHO::hCD137
T1 sequence (Q07011 24-255): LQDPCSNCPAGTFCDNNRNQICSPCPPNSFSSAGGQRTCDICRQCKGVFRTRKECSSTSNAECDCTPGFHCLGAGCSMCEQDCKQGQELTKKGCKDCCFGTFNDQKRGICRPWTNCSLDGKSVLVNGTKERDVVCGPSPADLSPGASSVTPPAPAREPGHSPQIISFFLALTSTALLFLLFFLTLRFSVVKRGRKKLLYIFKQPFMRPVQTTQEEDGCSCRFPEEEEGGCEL
Test: FACS on CHO cells stably transfected with human CD137; anti-lipocalin primary and Alexa488 secondary antibody
measured endpoint: EC50 (nM)
Quick note: give the figure in nM, leave out the unit.

[[record]]
binder = "lipocalin mutein of SEQ ID NO: 17 (designed binder, not shown: small tags and cut ends, expressed in E. coli with a C-terminal Strep-tag II; also called hNGAL mutein) QDSTSDLIPAPPLSKVPLQQNFQDNQFHGKWYVVGQAGNIKLREDKDPVKMMATIYELKEDKSYDVTGVTFDDKKCRYDISTFVPGSQPGEFTFGKIKSFPGHTSSLVRVVSTNYNQHAMVFFKFVFQNREEFYITLYGRTKELTSELKENFIRFSKSLGLPENHIVFPVPIDQCIDG"
measured_endpoint = "EC50"
observed_result = 17.9

[[record]]
binder = "lipocalin mutein of SEQ ID NO: 20 (designed binder, not shown: small tags and cut ends, expressed in E. coli with a C-terminal Strep-tag II; also called hNGAL mutein) QDSTSDLIPAPPLSKVPLQQNFQDNQFHGKWYVVGQAGNIRLREDKDPSKMMATIYELKEDKSYDVTAVTFDDKKCNYAISTFVPGSQPGEFTLGKIKSFPGHTSSLVRVVSTNYNQHAMVFFKFVFQNREEFYITLYGRTKELTSELKENFIRFSKSLGLPENHIVFPVPIDQCIDG"
measured_endpoint = "EC50"
observed_result = 18

[[record]]
binder = "lipocalin mutein of SEQ ID NO: 18 (designed binder, not shown: small tags and cut ends, expressed in E. coli with a C-terminal Strep-tag II; also called hNGAL mutein) QDSTSDLIPAPPLSKVPLQQNFQDNQFHGKWYVVGQAGNIRLREDKDPHKMMATIYELKEDKSYDVTGVTFDDKKCTYAISTFVPGSQPGEFTLGKIKSFPGHTSSLVRVVSTNYNQHAMVFFKFVFQNREEFYITLYGRTKELTSELKENFIRFSKSLGLPENHIVFPVPIDQCIDG"
measured_endpoint = "EC50"
observed_result = 13.7


Q: Query: EC50; subject: lipocalin mutein of SEQ ID NO: 13 (designed binder, not shown: small tags and cut ends, expressed in E. coli with a C-terminal Strep-tag II; also called hNGAL mutein) QDSTSDLIPAPPLSKVPLQQNFQDNQFHGKWYVVGQAGNIRLREDKDPIKMMATIYELKEDKSYDVTMVKFDDKKCMYDIWTFVPGSQPGEFTLGKIKSFPGHTSSLVRVVSTNYNQHAMVFFKFVFQNREEFYITLYGRTKELTSELKENFIRFSKSLGLPENHIVFPVPIDQCIDG
Result: 4.3

Q: Entry lipocalin mutein of SEQ ID NO: 14 (designed binder, not shown: small tags and cut ends, expressed in E. coli with a C-terminal Strep-tag II; also called hNGAL mutein) QDSTSDLIPAPPLSKVPLQQNFQDNQFHGKWYVVGQAGNIRLREDKDPNKMMATIYELKEDKSYDVTAVAFDDKKCTYDIWTFVPGSQPGEFTLGKIKSFPGHTSSLVRVVSTNYNQHAMVFFKFVFQNREEFYITLYGRTKELTSELKENFIRFSKSLGLPENHIVFPVPIDQCIDG has what EC50?
Result: 4.5

Q: # get_value(readout='EC50', item= lipocalin mutein of SEQ ID NO: 15 (designed binder, not shown: small tags and cut ends, expressed in E. coli with a C-terminal Strep-tag II; also called hNGAL mutein) QDSTSDLIPAPPLSKVPLQQNFQDNQFHGKWYVVGQAGNIKLREDKDPNKMMATIYELKEDKSYDVTAVAFDDKKCTYDIWTFVPGSQPGEFTLGKIKSFPGHTSSLVRVVSTNYNQHAMVFFKFVFQNREEFYITLYGRTKELTSELKENFIRFSKSLGLPENHIVFPVPIDQCIDG )
Result: 7.8
